Target: Human PD-L1/PD-1 (Homo sapiens)
Construct: TVMV protease cleavage site (C); made in house; host or cells: HEK293T cells
Sequence (Q9NZQ7 with tags, fused parts or gaps): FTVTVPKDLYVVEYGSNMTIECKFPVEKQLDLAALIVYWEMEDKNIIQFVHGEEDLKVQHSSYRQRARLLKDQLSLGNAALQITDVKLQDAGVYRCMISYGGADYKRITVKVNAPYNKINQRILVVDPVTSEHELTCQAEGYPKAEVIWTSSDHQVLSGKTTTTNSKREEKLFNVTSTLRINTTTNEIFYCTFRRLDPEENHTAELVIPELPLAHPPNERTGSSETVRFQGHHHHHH
Test: HTRF Human PD-L1/PD-1 binding assay (PD-1-Ig/PD-L1-His)
Details: PD-L1-His 10 nM, PD-1-Ig 20 nM; class symbol; read-out: HTRF Human PD-L1/PD-1 Binding Assay IC50 Range
pIC50: −log10 of the molar value. Where a SMILES comes first, the peptide text is derived from it. Bridges are numbered along the chain shown (N, C = ends). [ ]: non-standard residue; d: D form. ξ: configuration not given here. Bta = N[C@@H](Cc1csc2ccccc12)C(=O)O; Hyp = O=C(O)[C@@H]1C[C@@H](O)CN1; NMeNle = CCCC[C@H](NC)C(=O)O; Pip = O=C(O)[C@@H]1CCCCN1; hSer = N[C@@H](CCO)C(=O)O; NMeA = CN[C@@H](C)C(=O)O; ξC = NC(CS)C(=O)O
Reported pIC50 values follow for various molecules

1) CCCC[C@H]1C(=O)N(C)[C@@H](C)C(=O)N[C@@H](CCCNC(=N)N)C(=O)NC(C(=O)NCC(N)=O)CSCC(=O)N[C@@H](Cc2ccc(O)cc2)C(=O)N(C)[C@@H](C)C(=O)N[C@@H](CC(N)=O)C(=O)N2CCC[C@H]2C(=O)N[C@@H](CC(N)=O)C(=O)N[C@@H](CC(C)C)C(=O)N2CCC[C@H]2C(=O)N[C@@H](Cc2c[nH]c3ccccc23)C(=O)N[C@@H](CO)C(=O)N[C@@H](Cc2csc3ccccc23)C(=O)N1C (stereo partly shown) [Example 9137] ({CH2CO}-Y[NMeA]NPNLPWS[Bta][NMeNle][NMeA]R[ξC]G-NH2; thioether N-14) ... 8.00 to 9.00
2) CCCC[C@H]1C(=O)N(C)[C@@H](CCCC)C(=O)N[C@@H](CCCNC(=N)N)C(=O)NC(C(=O)NCC(N)=O)CSCC(=O)N[C@@H](Cc2ccc(O)cc2)C(=O)N(C)[C@@H](C)C(=O)N[C@@H](CC(N)=O)C(=O)N2CCC[C@H]2C(=O)N[C@@H](CCO)C(=O)N[C@@H](CCO)C(=O)N2CCC[C@H]2C(=O)N[C@@H](Cc2c[nH]c3ccccc23)C(=O)N[C@@H](CO)C(=O)N[C@@H](Cc2csc3ccccc23)C(=O)N1C (stereo partly shown) [Example 10019] ({CH2CO}-Y[NMeA]NP[hSer][hSer]PWS[Bta][NMeNle][NMeNle]R[ξC]G-NH2; thioether N-14) ... 7.00 to 8.00
3) CCCC[C@H]1C(=O)N[C@@H](CC(N)=O)C(=O)N2CCC[C@H]2C(=O)N[C@@H](CO)C(=O)N[C@@H](CCO)C(=O)N2C[C@H](O)C[C@H]2C(=O)N[C@@H](Cc2c[nH]c3ccccc23)C(=O)N[C@@H](CCO)C(=O)N[C@@H](Cc2c[nH]c3ccccc23)C(=O)N(C)[C@@H](C)C(=O)N(C)[C@@H](C)C(=O)N[C@@H](CCC(=O)O)C(=O)NC(C(=O)NCC(N)=O)CSCC(=O)N[C@@H](Cc2ccc(O)cc2)C(=O)N1C (stereo partly shown) [Example 10218] ({CH2CO}-Y[NMeNle]NPS[hSer][Hyp]W[hSer]W[NMeA][NMeA]E[ξC]G-NH2; thioether N-14) ... 5.00 to 6.00

**Q:** Please look up its pIC50: CCCC[C@H]1C(=O)N(C)[C@@H](CCCC)C(=O)N[C@@H](C)C(=O)N[C@H](C(=O)NCC(N)=O)CSCC(=O)N[C@@H](Cc2ccc(O)cc2)C(=O)N2CCCC[C@H]2C(=O)N[C@@H](CC(=O)O)C(=O)N2CCC[C@H]2C(=O)N[C@@H](Cc2cnc[nH]2)C(=O)N[C@@H](CCC(N)=O)C(=O)N2C[C@H](O)C[C@H]2C(=O)N[C@@H](Cc2c[nH]c3ccccc23)C(=O)N[C@@H](CO)C(=O)N[C@@H](Cc2csc3ccccc23)C(=O)N1C [Example 1509] ({CH2CO}-Y[Pip]DPHQ[Hyp]WS[Bta][NMeNle][NMeNle]ACG-NH2; thioether N-14)
**A:** 7.00 to 8.00
